Task for the reader: assign each of the following molecules its reported IC50.
- Test system: CCRF-CEM/VM-1 cells
- TEST_PROTOCOL: Cytotoxicity toward VM-26-resistant CCRF-CEM/VM-1 cells (mutated Topo II gene)
- Format: cell-based, human
- CONDITION_DETAILS: Homo sapiens, CCRF-CEM, Table 6B, CCRF-CEM/VM-1; read-out: IC50 of reversing agent
Expressed in µM, but write only the number.

Could you share which IC50 value was measured for C=CC(C)(C)C12CC3C(=O)NC(C)C(=O)N3C1N(C(=O)C(F)(F)F)c1ccccc12 (stereo not drawn) [5N-F3 -Ac-DKP 14F(E), 5N-trifluoroacetyl diketopiperazine] ?
40.9

Input C=CC(C)(C)C12CC3c4nc5ccccc5c(=O)n4CC(=O)N3C1Nc1ccccc12 (stereo not drawn)
18.1

Now try C=CC(C)(C)C12CC3c4nc5ccccc5c(=O)n4CC(=O)N3C1N(C(C)=O)c1ccccc12 (stereo not drawn) .
35.8

Attribution: patent US6147076A
